assay: chemical genetic growth profiling, strain panel (AID 1159580);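 also: tested at 20 µM; growth read once vehicle control cultures reached saturation at 30 °C; 1 = growth at the plate median or of vehicle wells; lower values mean less growth of the strain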; settings: S. cerevisiae deletion strains, growth OD, locus YFR028C, strain CDC14, hits give low values
Among all 5,500 compounds or so, about 2,000 (36%) were called active. Inconclusive results (about 18%) are left out. The list shows a part of the results.
Metric: normalized growth
Numbers only.

Solved entries (count: 5):
1. CC(C)(C)C(=O)NC(=S)N/N=C\c1cc(Cl)cc(Cl)c1O    0.938
2. O=C(NNc1ccc(F)cc1F)c1sccc1Cl    0.977
3. Cc1nnc2n1N=C(c1ccc(CC(C)C)cc1)C(C)S2 (configuration not stated)    0.969
4. Oc1c(Br)cc(Br)cc1/C=N\n1cnnc1    0.958
5. COCCCNC(=S)N/N=C\c1cc(Br)ccc1O    0.972

Could I get normalized growth for every one of these entries?
1. CCCCNC(=S)N/N=C\c1cc(Cl)cc(Cl)c1O
2. O=C1C(Cl)=C(Oc2cc(Cl)c(Cl)cc2Cl)C(=O)c2ccccc21
3. CCOC(=O)N/N=C\c1cc(Cl)cc(Cl)c1O
4. Cc1ccc(NNC(=O)c2cccs2)cc1Cl

// result
1: 0.924; 2: 0.149; 3: 0.938; 4: 0.964

List the reported normalized growth of each molecule below.
1. Cc1cc(Cl)ccc1NNC(=O)c1sccc1Br
2. O/N=C(/c1ccc(Cl)cc1)c1cc2ccccc2o1
3. O=S(=O)(CS(=O)(=O)Oc1ccc(Cl)c(Cl)c1)Oc1ccc(Cl)c(Cl)c1

// result
1: 0.924; 2: 0.956; 3: 0.97
